# target.entity: human μ-opioid receptor (Homo sapiens, UniProt P35372)
# Construct: expressed in transfected cells; host or cells: CHO-K1
# Sequence (P35372 whole entry): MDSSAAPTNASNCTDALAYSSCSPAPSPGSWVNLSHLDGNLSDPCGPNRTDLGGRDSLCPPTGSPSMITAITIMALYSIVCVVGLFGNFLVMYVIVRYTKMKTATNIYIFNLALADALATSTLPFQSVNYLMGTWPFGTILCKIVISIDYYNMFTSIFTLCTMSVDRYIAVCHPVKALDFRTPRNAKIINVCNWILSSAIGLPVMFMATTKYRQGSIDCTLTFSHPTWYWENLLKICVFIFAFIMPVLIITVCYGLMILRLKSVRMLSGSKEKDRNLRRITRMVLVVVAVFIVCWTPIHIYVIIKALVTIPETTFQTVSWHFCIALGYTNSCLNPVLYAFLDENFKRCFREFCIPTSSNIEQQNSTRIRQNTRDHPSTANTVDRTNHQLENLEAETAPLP
# procedure.text: Human μ-opioid receptor radioligand assay ([3H]-DAMGO)
# Assay type: binding
So I've got a bunch of compounds here, and I need their Ki values.

Here is how some compounds turned out for Ki.
>>> df
                                   compound  outcome_measure         result
0  CNCCC(Oc1ccccc1-n1nc2c(N(C)C)nnc(C)c2c1C)c1ccccc1 (centres unmarked)               Ki  0.1 to 0.5 µM
1  CCNCC[C@@H](Oc1ccccc1-n1nc2c(N(C)C)nnc(C)c2c1C)c1ccccc1               Ki  0.1 to 0.5 µM
2  CCNCCC(Oc1ccccc1-n1nc2c(N(C)C)nnc(C)c2c1C)c1ccccc1 (centres unmarked)               Ki  0.1 to 0.5 µM
3  CNCCC(Oc1ccccc1-n1nc2c(N(C)C)nnc(C)c2c1C)c1cccc(O)c1 (centres unmarked)               Ki  0.1 to 0.5 µM

Now take the following compound into account.
**Q:** Param item = Cc1nnc(N(C)C)c2nn(-c3ccccc3OC(CCNCCF)c3ccccc3)c(C)c12 (centres unmarked) ; retrieve measured Ki.
**A:** < 0.1 µM
